- STUDY SYSTEM: Cellular tumor antigen p53 (Homo sapiens)
- PROTOCOL: TOX21_p53_BLA_p4_ratio: Tox21 HCT-116 p53 Agonism Beta-lactamase Assay, Ratio, Phase 4 (AID 2283601)
Results filed as inconclusive are left out. Calls of active or inactive are those of the source. How the source made its calls: active means hit-call score of the fitted dose curve at least 0.9, where 1 is the maximum; inconclusive means response in the unintended direction; inactive means score below 0.9.
MEASURED PARAMETER: AC50

Quickly give me recorded AC50 for O=C(NN=Cc1ccc([N+](=O)[O-])o1)c1ccc(O)cc1
inactive

Consider the compound Nc1ccc(NC(=O)c2ccc(N)cc2)cc1 and give its recorded AC50.
inactive

Specify reported AC50 for the compound shown: CNCC[C@H](Oc1cccc2ccccc12)c1cccs1
43.7 µM (active)

Supply measured AC50 of CN1CCN(CCCN2c3ccccc3Sc3ccc(Cl)cc32)CC1 in your reply.
43.7 µM (active)

Continuing:
State, in one line, measured AC50 of CC(=O)OC(C)OC(=O)C(C)c1ccc(-c2ccccc2)c(F)c1 (stereo unspecified)
inactive

Give a short answer stating reported AC50 for CC(=O)N[C@@H](CC(C)C)C(=O)O .
inactive

----------
- PROTOCOL: BSK_4H_SRB: Viability Assessment in the BioMAP Diversity Plus: 4H Assay (AID 2283027);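 further: cells exposed to compound for 24 h before staining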
- EXPERIMENTAL PARAMETERS: primary human endothelial cells (HUVEC)
Calls of active or inactive are those of the source. How the source made its calls: active means hit-call score of the fitted dose curve at least 0.9, where 1 is the maximum; inactive means score below 0.9.
Response enum: t (active), f (inactive)

Tell me the recorded outcome of this test for CCCCCCC(O)CCCCCCCCCCC(=O)OC (configuration not stated) .
f

Fill in: this test's call for C1CN(CCOCCN2CCOCC2)CCO1 is ___
f

What call does the record list for CN(C)CCC(c1ccc(Cl)cc1)c1ccccn1 (configuration not stated) ?
f

Test call, this molecule: Cc1cc(-n2nc3ccc(Cl)cc3n2)c(O)c(C(C)(C)C)c1
f

I'd appreciate the recorded outcome for CC[N+](CC)(CC(=O)Nc1c(C)cccc1C)Cc1ccccc1 (tested in a mixture with another compound) from this test.
f

Per the records of this test, what outcome belongs to Oc1cccc2ccccc12 ?
f

# fetch the recorded call for COc1cc(CNC(=O)CCCC/C=C/C(C)C)ccc1O here
f

Tell me the assay call for COC(=O)/C=C\C(=O)OC please.
f

What did this assay record as the result for Sc1nc2ccccc2s1 ?
f

Kindly provide the recorded test outcome for the following molecule: COc1ccc(C(=O)c2ccccc2O)c(O)c1
f

Recorded test outcome, item Cc1c(C(N)=O)cc([N+](=O)[O-])cc1[N+](=O)[O-]
f

Which result was noted for this molecule in the test: CC(C)CC(=O)CC(C)CC(C)C (configuration not stated)
t

Record request — test call for CCC(C)=NO
f

Recorded call for O=C(C(=O)c1ccccc1)c1ccccc1 ?
f

Just curious, what result did CCCCCCCCCCCCCCCCCC[N+](C)(C)C get here?
t

Please indicate how the test categorized CN(C)c1ccc(C(c2ccccc2)c2ccc(N(C)C)cc2)cc1 .
t

Give the logged outcome of this assay for the following molecule: CCCCCCCCCC/C=C/C1CC(=O)OC1=O (configuration not stated)
f

----------
- PROTOCOL: ATG_RORE_CIS: Attagene CIS-FACTORIAL HepG2 Assay for human RAR-related Orphan Receptor Element (RORE) (AID 2282959)
- EXPERIMENTAL PARAMETERS: HepG2 Attagene cis-factorial RORE reporter, mRNA; actives raise or lower the signal
Activity calls are given as the source filed them. Rule for the calls: active = hit-call score of the fitted dose curve at least 0.9, where 1 is the maximum; inactive = score below 0.9.
Outcome field: choose from 1.0 for active, 0.0 for inactive

Entry CC(C)CC(=O)O : call = ?
0.0

Record request — test call for Nc1nnc(-c2ccc([N+](=O)[O-])o2)o1
0.0

Further cases:
Tell me the assay call for OCCc1ccccn1 please.
0.0

----------
- STUDY SYSTEM: Cellular tumor antigen p53 (Homo sapiens) (UniProt P04637)
- Sequence (P04637 whole entry, looked up): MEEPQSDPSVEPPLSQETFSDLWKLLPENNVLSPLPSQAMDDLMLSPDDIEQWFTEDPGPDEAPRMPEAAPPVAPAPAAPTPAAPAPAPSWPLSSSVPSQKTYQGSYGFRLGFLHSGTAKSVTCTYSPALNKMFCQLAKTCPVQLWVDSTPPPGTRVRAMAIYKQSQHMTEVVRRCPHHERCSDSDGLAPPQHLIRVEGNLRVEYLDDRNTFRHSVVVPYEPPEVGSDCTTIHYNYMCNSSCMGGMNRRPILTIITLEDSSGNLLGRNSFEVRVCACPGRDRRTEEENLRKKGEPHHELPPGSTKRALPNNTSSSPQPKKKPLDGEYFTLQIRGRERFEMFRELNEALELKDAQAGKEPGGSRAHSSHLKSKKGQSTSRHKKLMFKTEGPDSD
- PROTOCOL: TOX21_p53_BLA_p3_ratio: Tox21 HCT-116 p53 Agonism Beta-lactamase Assay, Ratio, Phase 3 (AID 2283596)
Records with an inconclusive call do not appear. Calls of active or inactive are those of the source. Rule for the calls: active = hit-call score of the fitted dose curve at least 0.9, where 1 is the maximum; inconclusive = response in the unintended direction; inactive = score below 0.9.
Entry note: the call must match one of active, inactive

Some solved cases for reference:
Short answer needed: outcome of this test for Cc1nnc(C(C)C)n1C1C[C@H]2CC[C@@H](C1)N2CC[C@@H](NC(=O)C1CCC(F)(F)CC1)c1ccccc1 (some centres not stated) ?
inactive

Hi, do you know how O=[N+]([O-])c1cccc(S(=O)(=O)NCCNS(=O)(=O)c2cccc([N+](=O)[O-])c2)c1 came out in this test?
inactive

Hi team, can someone confirm the assay call for CCC1C(=O)OCC1Cc1cncn1C (configuration not stated) ?
inactive

Hi, sorry to bother you, what did the test record for C=CCn1cc[n+](C)c1 ?
inactive

Called result for CC(CN1CC(=O)NC(=O)C1)N1CC(=O)NC(=O)C1 (configuration not stated)
inactive

Continuing:
What call does the record list for COc1ccc(-c2ccc3cc(C(=O)O)ccc3c2)cc1C12CC3CC(CC(C3)C1)C2 ?
active

Give the logged outcome of this assay for the following compound: O=S(=O)(O)c1cccc2ccccc12
inactive

Per the records of this test, what outcome belongs to FC(F)OC(Cl)C(F)(F)F (configuration not stated) ?
inactive

Check the results log: what was the call for CN(C(=O)CCCOc1ccc2[nH]c(=O)ccc2c1)C1CCCCC1 ?
inactive

Any idea what this test logged for Cc1cc(O)c2ccccc2c1O ?
inactive

Recorded test call requested for CC(=O)Nc1ccc(C(=O)O)cc1
inactive

----------
- Read-out: Interleukin-1 alpha (IL1a), IL1A (gene 3552)
- PROTOCOL: BSK_LPS_IL1a: BioMAP Diversity Plus: LPS Assay for Interleukin-1 alpha (IL1a) Biomarker Activity (AID 2283080)
- EXPERIMENTAL PARAMETERS: primary human HUVEC with PBMC; actives raise or lower the signal
Calls of active or inactive are those of the source. The calls were made as follows: active = hit-call score of the fitted dose curve at least 0.9, where 1 is the maximum; inactive = score below 0.9.
Outcomes you can answer with include only these: active, inactive

Solved entries:
Per the records of this test, what outcome belongs to Oc1cccc2ccccc12 ?
inactive

Hi, sorry to bother you, what did the test record for CN(C)CCC(c1ccc(Cl)cc1)c1ccccn1 (centres undefined) ?
inactive

Hi team, can someone confirm the assay call for Sc1nc2ccccc2s1 ?
inactive

Hi, sorry to bother you, what did the test record for CC[N+](CC)(CC(=O)Nc1c(C)cccc1C)Cc1ccccc1 (tested in a mixture with another compound) ?
inactive

Would you mind telling me which call this test gave CCCCCCC(O)CCCCCCCCCCC(=O)OC (centres undefined) ?
inactive

Hi, do you know how CCCCCCCCCCCCCCCCCC[N+](C)(C)C came out in this test?
active

Further cases:
Entry CC[N+](CC)(CC(=O)Nc1c(C)cccc1C)Cc1ccccc1 : call = ?
inactive

Hi, do you know how Cc1cccnc1 came out in this test?
inactive

Would you mind telling me which call this test gave O=C(C(=O)c1ccccc1)c1ccccc1 ?
inactive

Tell me the recorded outcome of this test for COC(=O)/C=C\C(=O)OC .
inactive

Tell me the assay call for CCC(C)=NO please.
inactive

What outcome does the record of this test show for CN(C)Cc1cc(C(C)(C)C)c(O)c(C(C)(C)C)c1 ?
inactive

Recorded test call requested for COc1cc(CNC(=O)CCCC/C=C/C(C)C)ccc1O
inactive

What outcome does the record of this test show for CCCCCCCCCC/C=C/C1CC(=O)OC1=O (centres undefined) ?
inactive

----------
- STUDY SYSTEM: Cellular tumor antigen p53 (Homo sapiens)
- PROTOCOL: TOX21_p53_BLA_p3_ratio: Tox21 HCT-116 p53 Agonism Beta-lactamase Assay, Ratio, Phase 3 (AID 2283596)
Records with an inconclusive call do not appear. Activity calls are given as the source filed them. How the source made its calls: active means hit-call score of the fitted dose curve at least 0.9, where 1 is the maximum; inconclusive means response in the unintended direction; inactive means score below 0.9.
Could you please pick one outcome from this set? 1 = active, -1 = inactive

For CC(=O)C1CCCCC1=O (stereo not given) , which call appears in the assay record?
-1

I'd appreciate the recorded outcome for CC[N+](CC)(CC)CCOc1ccc(/C=C/c2ccccc2)cc1 from this test.
-1

Hey, what did the test say about CSc1ccc2c(c1)N(CCC1CCCCN1C)c1ccccc1S2 (stereo not given) ?
-1

---
Entry CC=CC(=O)CC : call = ?
-1

Which outcome was entered for the molecule [O]=[Zr] in this test?
-1

Which outcome was entered for the molecule C=CCOCC(CC)(CO)COCC=C in this test?
-1

Which result was noted for this molecule in the test: ClC/C=C/CCl
-1

Assay result, entry COc1ccc(OC)c(C(O)CNC(=O)CN)c1 (stereo not given) — outcome?
-1

Which result was noted for this molecule in the test: c1cc(OCC2CO2)cc(OCC2CO2)c1 (stereo not given)
1

----------
- PROTOCOL: BSK_KF3CT_SRB: Viability Assessment in the BioMAP Diversity Plus: KF3CT Assay (AID 2283069);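 further: total protein by sulforhodamine B staining as a cytotoxicity measure; read 24 h after compound addition; fitted for both signal gain and loss against DMSO baseline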
- EXPERIMENTAL PARAMETERS: primary human keratinocytes with fibroblasts
Calls of active or inactive are those of the source. How the source made its calls: active means hit-call score of the fitted dose curve at least 0.9, where 1 is the maximum; inactive means score below 0.9.
Return exactly one item of active, inactive

Consider the worked cases shown below.
Outcome? CCC[Si](OC(C)=O)(OC(C)=O)OC(C)=O
inactive

Record lookup: outcome of this test for CCCCCCCCCCCCCCCCCC[N+](C)(C)C ?
active

Assay result, entry O=C(C(=O)c1ccccc1)c1ccccc1 — outcome?
inactive

Test call for this molecule, please: CCCCC(CC)COC(=O)C=Cc1ccc(OC)cc1 (configuration not stated)
inactive

Please state the recorded outcome for this molecule: CCC(C)=NO
inactive

Hey, what did the test say about CN(C)CCC(c1ccc(Cl)cc1)c1ccccn1 (configuration not stated) ?
inactive

Recorded call for Cc1cccnc1 ?
inactive

For CC(C)CC(=O)CC(C)CC(C)C (configuration not stated) , which call appears in the assay record?
active

Which result was noted for this molecule in the test: CC[N+](CC)(CC(=O)Nc1c(C)cccc1C)Cc1ccccc1
inactive

Dear colleague, could you share the recorded outcome for CC[N+](CC)(CC(=O)Nc1c(C)cccc1C)Cc1ccccc1 (tested in a mixture with another compound) when you have a moment?
inactive

As a next step, examine the molecule that follows.
Record lookup: outcome of this test for COc1ccccc1Oc1c(NS(=O)(=O)c2ccc(C(C)(C)C)cc2)nc(-c2ncccn2)nc1OCCO ?
inactive
